Molecular target: cyclooxygenase-1 (Mus musculus)
Construct: endogenous in cells; host or cells: primary mouse peritoneal macrophages (unstimulated)
Test: Inhibition of cyclooxygenase-1 in mouse peritoneal macrophages (PGE2 ELISA)
Type: cell-based
Settings: 10 μM
I'd appreciate it if you could supply Inhibitory effects of cyclooxygenase (COX), COX-1 values for the items below.
Hi, when you answer, please include the unit after the number. Thanks!

Any idea what Inhibitory effects of cyclooxygenase (COX), COX-1 was measured for CCO/N=C1\CCc2ccccc2C1=Cc1ccc(S(C)(=O)=O)cc1 ?
64.4 % inhibition

Try this compound too: CS(=O)(=O)c1ccc(C=C2/C(=N/OCc3ccccc3)CCc3ccccc32)cc1
47.1 % inhibition

Try this compound too: CS(=O)(=O)c1ccc(C=C2/C(=N/O)CCc3ccccc32)cc1
68.7 % inhibition

Try this compound too: CO/N=C1\CCc2ccccc2C1=Cc1ccc(S(C)(=O)=O)cc1
71.1 % inhibition

Try this compound too: CC(=O)O/N=C1\CCc2ccccc2C1=Cc1ccc(S(C)(=O)=O)cc1
32.3 % inhibition

---

Biological target: cyclooxygenase-1 (Mus musculus, UniProt P22437)
Construct: endogenous in cells; host or cells: primary mouse peritoneal macrophages (unstimulated)
Sequence (P22437 27-602): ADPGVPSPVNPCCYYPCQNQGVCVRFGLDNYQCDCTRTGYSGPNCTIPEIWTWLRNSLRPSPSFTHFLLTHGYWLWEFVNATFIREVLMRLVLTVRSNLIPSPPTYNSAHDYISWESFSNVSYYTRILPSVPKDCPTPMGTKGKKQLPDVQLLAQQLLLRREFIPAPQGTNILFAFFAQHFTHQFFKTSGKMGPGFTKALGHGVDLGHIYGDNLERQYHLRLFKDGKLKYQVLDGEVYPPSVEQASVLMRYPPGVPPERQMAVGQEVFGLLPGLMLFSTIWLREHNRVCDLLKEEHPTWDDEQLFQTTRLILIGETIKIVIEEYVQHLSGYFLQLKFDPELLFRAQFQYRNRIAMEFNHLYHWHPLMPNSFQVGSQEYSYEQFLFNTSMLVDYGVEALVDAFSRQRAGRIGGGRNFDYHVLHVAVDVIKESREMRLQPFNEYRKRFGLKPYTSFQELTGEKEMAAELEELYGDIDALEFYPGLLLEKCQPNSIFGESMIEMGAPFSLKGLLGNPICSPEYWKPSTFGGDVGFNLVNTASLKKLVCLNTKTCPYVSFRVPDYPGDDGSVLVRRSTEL
Assay: Inhibition of cyclooxygenase-1 in mouse peritoneal macrophages (PGE2 ELISA)
Format: cell-based
Details: 3 μM
Output: class label from Inhibitory effects of cyclooxygenase (COX), COX-1. Mapping: range A (below 30 % inhibition), range B (30 % inhibition to below 50 % inhibition), range C (50 % inhibition or more)

Please report the category associated with CS(=O)(=O)c1ccc(C=C2/C(=N/O)CCc3ccccc32)cc1 [Example 2] , nothing else.
range C

Try this compound too: CC(=O)O/N=C1\CCc2ccccc2C1=Cc1ccc(S(C)(=O)=O)cc1 [Example 8]
range A

Try this compound too: CS(=O)(=O)c1ccc(/C=C2/C(=O)CCc3ccccc32)cc1 [Example 1]
range B

Try this compound too: CS(=O)(=O)c1ccc(C=C2/C(=N/OCc3ccccc3)CCc3ccccc32)cc1 [Example 5]
range B

Try this compound too: CS(=O)(=O)c1ccc(C=C2/C(=N/OC(=O)COCc3ccccc3)CCc3ccccc32)cc1 [Example 9]
range A

Try this compound too: CS(=O)(=O)c1ccc(-c2[nH]nc3c2-c2ccccc2CC3)cc1 [Example 6]
range C

Try this compound too: CCO/N=C1\CCc2ccccc2C1=Cc1ccc(S(C)(=O)=O)cc1 [Example 3]
range C

Try this compound too: CO/N=C1\CCc2ccccc2C1=Cc1ccc(S(C)(=O)=O)cc1 [Example 4]
range C

---

I'd appreciate it if you could supply Inhibitory effects of cyclooxygenase (COX), COX-2 values for the items below.
Molecular target: cyclooxygenase-2 (Mus musculus)
Construct: Peritoneal fluid suspended with macrophages was extracted from a mouse peritoneal cavity; endogenous in cells; host or cells: primary mouse peritoneal macrophages, pretreated with 500 uM aspirin and stimulated with 10 ug/ml LPS
Sequence (Q05769 18-604): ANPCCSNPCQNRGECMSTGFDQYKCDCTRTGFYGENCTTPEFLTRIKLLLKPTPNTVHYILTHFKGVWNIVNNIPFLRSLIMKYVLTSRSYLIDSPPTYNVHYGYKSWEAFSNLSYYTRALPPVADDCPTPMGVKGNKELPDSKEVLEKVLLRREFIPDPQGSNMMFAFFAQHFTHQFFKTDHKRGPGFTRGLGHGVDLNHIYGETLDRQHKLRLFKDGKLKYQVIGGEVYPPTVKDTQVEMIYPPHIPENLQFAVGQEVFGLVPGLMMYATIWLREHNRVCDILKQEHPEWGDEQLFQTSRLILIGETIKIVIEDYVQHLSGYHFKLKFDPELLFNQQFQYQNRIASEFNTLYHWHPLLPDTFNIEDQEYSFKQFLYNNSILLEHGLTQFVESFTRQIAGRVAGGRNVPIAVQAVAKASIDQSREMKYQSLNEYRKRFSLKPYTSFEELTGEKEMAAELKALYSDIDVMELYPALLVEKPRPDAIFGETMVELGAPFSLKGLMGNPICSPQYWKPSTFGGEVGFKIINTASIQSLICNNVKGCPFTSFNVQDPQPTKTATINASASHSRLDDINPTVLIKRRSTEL
Experiment: Inhibition of cyclooxygenase-2 in aspirin-pretreated, LPS-stimulated mouse peritoneal macrophages (PGE2 ELISA)
Type: cell-based
Details: 300 nM
All answers are understood in % inhibition, so give the number only.

Any idea what Inhibitory effects of cyclooxygenase (COX), COX-2 was measured for CCO/N=C1\CCc2ccccc2C1=Cc1ccc(S(C)(=O)=O)cc1 ?
70.2

Try this molecule too: CS(=O)(=O)c1ccc(-c2onc3c2-c2ccccc2CC3)cc1
76.8

Try this molecule too: CS(=O)(=O)c1ccc(C=C2/C(=N/O)CCc3ccccc32)cc1
22

Try this molecule too: Cn1nc2c(c1-c1ccc(S(C)(=O)=O)cc1)-c1ccccc1CC2
61.0

---

Target: cyclooxygenase-1 (Mus musculus)
Construct: endogenous in cells; host or cells: primary mouse peritoneal macrophages (unstimulated)
Experiment: Inhibition of cyclooxygenase-1 in mouse peritoneal macrophages (PGE2 ELISA)
Type: cell-based
Conditions: 30 μM
Output: class label from Inhibitory effects of cyclooxygenase (COX), COX-1. Mapping: I: < 50 % inhibition; II: ≥ 50 % inhibition and < 60 % inhibition; III: ≥ 60 % inhibition

Please report the category associated with CC(=O)O/N=C1\CCc2ccccc2C1=Cc1ccc(S(C)(=O)=O)cc1 , nothing else.
II

Try this compound too: CS(=O)(=O)c1ccc(C=C2/C(=N/OC(=O)COCc3ccccc3)CCc3ccccc32)cc1
I

Try this compound too: CS(=O)(=O)c1ccc(-c2onc3c2-c2ccccc2CC3)cc1
II

Try this compound too: CO/N=C1\CCc2ccccc2C1=Cc1ccc(S(C)(=O)=O)cc1
III

Try this compound too: CCO/N=C1\CCc2ccccc2C1=Cc1ccc(S(C)(=O)=O)cc1
III

Try this compound too: CS(=O)(=O)c1ccc(-c2[nH]nc3c2-c2ccccc2CC3)cc1
III

Try this compound too: CS(=O)(=O)c1ccc(C=C2/C(=N/OCc3ccccc3)CCc3ccccc32)cc1
II

Try this compound too: CS(=O)(=O)c1ccc(/C=C2/C(=O)CCc3ccccc32)cc1
I

Try this compound too: CS(=O)(=O)c1ccc(C=C2/C(=N/O)CCc3ccccc32)cc1
III
